Target: FGFR3 (human)
Experiment: radiometric filter-binding kinase assay, Kinase HotSpot
Conditions: compound 0.5 µM; ATP 10 µM
Output True for records whose residual activity is lower than 90%, False for records at or above 90%.

The following molecules have reported results that may help.
| smilesRepresentation | tgt | qualitativeLabel |
| --- | --- | --- |
| CC(=O)c1ccc(N2CCOCC2)cc1O | FGFR3 (human) | False |
| O=C1NC(=O)C(c2cn(CCCn3ccnc3)c3ccccc23)=C1Nc1ccccc1 | FGFR3 (human) | False |
| O=C1Nc2ccc(Cl)cc2/C1=C/c1cc(Cl)c(O)c(Cl)c1 | FGFR3 (human) | False |
| CCN(CC)C(=O)c1ccc(Nc2nc(OCC3CCCCC3)c3nc[nH]c3n2)cc1 | FGFR3 (human) | True |
| Nc1ccc2ncnc(NCCc3ccc(Oc4ccccc4)cc3)c2c1 | FGFR3 (human) | False |

Say whether its residual activity is strictly beneath 90%. Entry: Cc1[nH]c(/C=C2\C(=O)Nc3ccc(S(=O)(=O)N(C)c4cccc(Cl)c4)cc32)c(C)c1C(=O)N1CCN(C)CC1
True

Say whether its residual activity is strictly beneath 90%. Entry: Nc1cccc(-c2cc3c(Oc4cccc(O)c4)ncnc3[nH]2)c1
True

Say whether its residual activity is strictly beneath 90%. Entry: CCC(=O)Nc1ccc2ncnc(Nc3cccc(Br)c3)c2c1
False

Say whether its residual activity is strictly beneath 90%. Entry: Oc1cccc(-c2nc(N3CCOCC3)c3oc4ncccc4c3n2)c1
False

* * *

Target: MAP3K11 (human) (UniProt Q16584)
Sequence (Q16584 whole entry, looked up): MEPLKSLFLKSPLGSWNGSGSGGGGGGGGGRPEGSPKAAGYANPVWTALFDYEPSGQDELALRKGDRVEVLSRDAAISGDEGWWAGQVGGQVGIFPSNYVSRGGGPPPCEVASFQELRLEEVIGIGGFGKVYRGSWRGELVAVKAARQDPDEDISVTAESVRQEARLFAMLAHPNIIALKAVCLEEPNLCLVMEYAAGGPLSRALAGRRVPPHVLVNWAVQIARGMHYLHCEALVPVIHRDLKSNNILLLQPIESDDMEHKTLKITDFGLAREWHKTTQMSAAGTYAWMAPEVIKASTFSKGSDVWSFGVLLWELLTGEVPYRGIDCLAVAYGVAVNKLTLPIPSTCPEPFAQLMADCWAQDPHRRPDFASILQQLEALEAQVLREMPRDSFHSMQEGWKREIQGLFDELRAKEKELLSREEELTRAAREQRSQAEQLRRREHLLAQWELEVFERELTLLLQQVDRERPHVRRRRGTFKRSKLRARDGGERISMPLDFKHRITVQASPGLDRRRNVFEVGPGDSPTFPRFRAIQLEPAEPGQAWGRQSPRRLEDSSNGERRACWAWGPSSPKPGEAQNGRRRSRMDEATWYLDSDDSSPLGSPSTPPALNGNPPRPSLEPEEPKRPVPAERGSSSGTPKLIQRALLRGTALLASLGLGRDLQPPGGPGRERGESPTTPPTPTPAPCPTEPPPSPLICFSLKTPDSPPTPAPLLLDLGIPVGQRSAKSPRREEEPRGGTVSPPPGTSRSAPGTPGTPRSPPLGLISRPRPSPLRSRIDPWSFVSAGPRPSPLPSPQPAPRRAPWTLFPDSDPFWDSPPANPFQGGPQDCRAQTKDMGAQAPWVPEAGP
Experiment: radiometric filter-binding kinase assay, Kinase HotSpot
Conditions: compound 0.5 µM; ATP 10 µM
Answer -1 if residual activity is under 90%, and 1 if it is 90% or more.

The following compounds have reported results that may help.
| compound | qualitativeLabel |
| --- | --- |
| N#CC(C#N)=C(N)/C(C#N)=C/c1ccc(O)cc1 | 1 |
| Oc1cccc(-c2nc(N3CCOCC3)c3oc4ncccc4c3n2)c1 | 1 |
| CCN(CC)C(=O)c1ccc(Nc2nc(OCC3CCCCC3)c3nc[nH]c3n2)cc1 | -1 |

Would you say Nc1ncnc2c1c(-c1ccc(Oc3ccccc3)cc1)cn2C1CCCC1 shows residual activity at minimum 90%?
1

Would you say N#C/C(=C(/N)Sc1ccc(N)cc1)c1ccccc1C(F)(F)F shows residual activity at minimum 90%?
1

Would you say Nc1ncnc2[nH]nc(Nc3ccc(F)cc3)c12 shows residual activity at minimum 90%?
1

* * *

For each record, write down the corresponding residual activity.
Biological target: MARK3 (human) (UniProt P27448)
Sequence (P27448 whole entry, looked up): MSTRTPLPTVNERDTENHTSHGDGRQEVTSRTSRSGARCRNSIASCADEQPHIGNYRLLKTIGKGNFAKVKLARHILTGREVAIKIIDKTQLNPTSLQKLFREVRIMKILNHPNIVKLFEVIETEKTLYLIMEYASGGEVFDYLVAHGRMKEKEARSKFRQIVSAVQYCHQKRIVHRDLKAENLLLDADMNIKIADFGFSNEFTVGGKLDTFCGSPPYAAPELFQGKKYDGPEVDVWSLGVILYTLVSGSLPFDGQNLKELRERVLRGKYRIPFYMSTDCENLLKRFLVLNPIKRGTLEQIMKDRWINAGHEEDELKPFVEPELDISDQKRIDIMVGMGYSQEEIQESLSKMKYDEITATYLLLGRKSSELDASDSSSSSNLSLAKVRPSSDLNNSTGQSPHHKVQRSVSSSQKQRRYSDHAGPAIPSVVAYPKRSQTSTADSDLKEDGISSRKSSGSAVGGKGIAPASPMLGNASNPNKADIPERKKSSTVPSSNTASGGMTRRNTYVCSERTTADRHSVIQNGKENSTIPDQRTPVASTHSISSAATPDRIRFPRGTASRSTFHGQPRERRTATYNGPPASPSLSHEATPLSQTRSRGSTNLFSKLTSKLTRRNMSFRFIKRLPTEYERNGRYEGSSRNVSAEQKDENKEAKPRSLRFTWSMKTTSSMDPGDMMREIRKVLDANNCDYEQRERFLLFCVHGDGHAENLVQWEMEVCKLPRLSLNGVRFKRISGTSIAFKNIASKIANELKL
Assay: radiometric filter-binding kinase assay, Kinase HotSpot
Settings: compound 0.5 µM; ATP 10 µM
Numbers only, in %.

Examples with their reported residual activity follow.
| compound | tgt | valueKind | unitString | measuredResult |
| --- | --- | --- | --- | --- |
| Cc1ccc(Nc2nccc(N(C)c3ccc4c(C)n(C)nc4c3)n2)cc1S(N)(=O)=O | MARK3 (human) (UniProt P27448) | residual activity | % | 96.6 |
| Cc1ccc(NC2=CC(=O)c3sc(C)nc3C2=O)cc1 | MARK3 (human) (UniProt P27448) | residual activity | % | 95.1 |
| CNc1cc2c(Nc3cccc(Br)c3)ncnc2cn1 | MARK3 (human) (UniProt P27448) | residual activity | % | 82.2 |

Dear colleague, could you send me residual activity for each of the items below? Thanks.
1. CCN(CC)C(=O)c1ccc(Nc2nc(OCC3CCCCC3)c3nc[nH]c3n2)cc1
2. Nc1ccc2ncnc(NCCc3ccc(Oc4ccccc4)cc3)c2c1
3. COc1cc2ncnc(Nc3cccc(Cl)c3)c2cc1OC
4. CCN(CC)CCNC(=O)c1c(C)[nH]c(/C=C2\C(=O)Nc3ccc(F)cc32)c1C
5. COc1ccc(COc2ccc(Cc3cnc(N)nc3N)cc2OC)cc1
6. CC(=O)c1ccc(N2CCOCC2)cc1O
7. O=C1Nc2ccc(Cl)cc2/C1=C/c1cc(Cl)c(O)c(Cl)c1
8. CO[C@H]1CC2CC[C@@H](C)[C@@](O)(O2)C(=O)C(=O)N2CCCC[C@H]2C(=O)OC([C@H](C)C[C@@H]2CC[C@@H](O)[C@H](OC)C2)CC(=O)[C@H](C)/C=C(\C)[C@@H](O)[C@@H](OC)C(=O)[C@H](C)C[C@H](C)/C=C/C=C/C=C/1C (stereo not given in full)

1: 85.4; 2: 86.4; 3: 89.8; 4: 30.4; 5: 103; 6: 108; 7: 81.1; 8: 99

Dear colleague, could you send me residual activity for each of the items below? Thanks.
1. N#CC(C#N)=C(N)/C(C#N)=C/c1ccc(O)cc1
2. Cc1ccc(S(=O)(=O)/C=C/C#N)cc1
3. Nc1cccc(-c2cc3c(Oc4cccc(O)c4)ncnc3[nH]2)c1
4. CC[n+]1c(/C=C/N(C)c2ccccc2)n(-c2ccccc2)c2ccc(-c3nc4ccccc4s3)cc21
5. c1ccc(-c2n[nH]cc2-c2ccnc3ccccc23)nc1
6. CCOC(=O)c1c(C)[nH]c(/C=C2\C(=O)Nc3ccccc32)c1C
7. O=C1NC(=O)C(c2cn(CCCn3ccnc3)c3ccccc23)=C1Nc1ccccc1

96.5
100
77.5
98.8
87.5
99.8
92.1

Dear colleague, could you send me residual activity for each of the items below? Thanks.
1. Cc1[nH]c(/C=C2\C(=O)Nc3ccc(S(=O)(=O)N(C)c4cccc(Cl)c4)cc32)c(C)c1C(=O)N1CCN(C)CC1
2. CC(C)N(CCC(=O)c1ccc2ccccc2c1)Cc1ccccc1
3. O=C(Nc1cccc(Nc2nccc(Nc3cccc(C(F)(F)F)c3)n2)c1)C1CC1
4. CC#CC(=O)Nc1cc2c(Nc3ccc(F)c(Cl)c3)ncnc2cn1
5. CNC(=O)c1cc(Oc2ccc(NC(=O)Nc3ccc(Cl)c(C(F)(F)F)c3)cc2)ccn1
6. Nc1ncnc2[nH]nc(Nc3ccc(F)cc3)c12
7. c1ccc(-c2n[nH]c3c2oc2ccccc23)cc1

41.9
101
102
107
103
92.5
96.5

* * *

Target: GSK3B (human) (UniProt P49841)
Sequence (P49841 whole entry, looked up): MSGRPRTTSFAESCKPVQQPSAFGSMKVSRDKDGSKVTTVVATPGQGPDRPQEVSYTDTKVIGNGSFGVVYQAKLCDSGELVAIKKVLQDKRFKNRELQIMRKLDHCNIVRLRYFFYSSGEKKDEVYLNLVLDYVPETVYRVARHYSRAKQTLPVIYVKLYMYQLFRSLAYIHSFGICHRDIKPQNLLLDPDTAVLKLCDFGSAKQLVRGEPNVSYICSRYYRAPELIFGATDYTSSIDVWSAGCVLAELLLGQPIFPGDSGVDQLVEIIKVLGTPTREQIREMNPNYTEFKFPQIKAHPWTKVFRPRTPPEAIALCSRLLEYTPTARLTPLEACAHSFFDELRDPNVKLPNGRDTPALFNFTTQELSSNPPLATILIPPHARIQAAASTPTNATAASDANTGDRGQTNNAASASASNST
Assay: radiometric filter-binding kinase assay, Kinase HotSpot
Settings: compound 0.5 µM; ATP 10 µM
valueKind: residual activity (%)
Numbers only, in %.

Examples with their reported residual activity follow.
| smilesRepresentation | residual activity / % |
| --- | --- |
| Nc1ncnc2[nH]nc(Nc3ccc(F)cc3)c12 | 101 |
| CC(=O)c1ccc(N2CCOCC2)cc1O | 122 |
| COc1cc2ncnc(Nc3cccc(Cl)c3)c2cc1OC | 98.7 |
| CCN(CC)CCNC(=O)c1c(C)[nH]c(/C=C2\C(=O)Nc3ccc(F)cc32)c1C | 95.8 |
| CNC(=O)c1cc(Oc2ccc(NC(=O)Nc3ccc(Cl)c(C(F)(F)F)c3)cc2)ccn1 | 101 |

Dear colleague, could you send me residual activity for each of the items below? Thanks.
1. c1ccc(-c2n[nH]cc2-c2ccnc3ccccc23)nc1
2. Cc1[nH]c(/C=C2\C(=O)Nc3ccc(S(=O)(=O)N(C)c4cccc(Cl)c4)cc32)c(C)c1C(=O)N1CCN(C)CC1

1: 95.2; 2: 96.1

* * *

Molecular target: ACVRL1 (human) (UniProt P37023)
Sequence (P37023 whole entry, looked up): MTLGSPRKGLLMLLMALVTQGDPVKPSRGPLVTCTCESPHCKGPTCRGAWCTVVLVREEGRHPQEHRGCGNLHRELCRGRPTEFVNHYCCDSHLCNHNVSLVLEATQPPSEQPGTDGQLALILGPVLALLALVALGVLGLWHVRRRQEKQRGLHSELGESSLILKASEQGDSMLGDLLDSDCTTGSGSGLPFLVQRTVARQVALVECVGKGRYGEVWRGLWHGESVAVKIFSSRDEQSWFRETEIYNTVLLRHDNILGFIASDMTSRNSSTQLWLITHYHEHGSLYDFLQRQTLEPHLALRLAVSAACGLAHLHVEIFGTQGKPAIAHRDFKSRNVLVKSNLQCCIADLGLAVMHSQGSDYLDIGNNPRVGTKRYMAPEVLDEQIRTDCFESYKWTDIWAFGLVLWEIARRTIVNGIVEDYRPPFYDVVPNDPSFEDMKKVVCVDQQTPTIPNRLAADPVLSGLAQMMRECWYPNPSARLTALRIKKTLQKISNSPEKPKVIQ
Test: radiometric filter-binding kinase assay, Kinase HotSpot
Details: compound 0.5 µM; ATP 10 µM
valueKind: residual activity (%)
Give bare numbers, in %.

Examples with their reported residual activity follow.
| smilesRepresentation | residual activity (%) |
| --- | --- |
| N#CC(C#N)=C(N)/C(C#N)=C/c1ccc(O)cc1 | 88.8 |
| CCC(=O)Nc1ccc2ncnc(Nc3cccc(Br)c3)c2c1 | 97.4 |
| O=C1Nc2ccc(Cl)cc2/C1=C/c1cc(Cl)c(O)c(Cl)c1 | 96.4 |
| COc1ccc(COc2ccc(Cc3cnc(N)nc3N)cc2OC)cc1 | 101 |

Dear colleague, could you send me residual activity for each of the items below? Thanks.
1. Cc1ccc(NC2=CC(=O)c3sc(C)nc3C2=O)cc1
2. O=c1cc(N2CCOCC2)oc2c1ccc1ccccc12
3. O=C1NC(=O)/C(=C/c2ccc3c(c2)OC(F)(F)O3)S1
4. COc1cc2ncnc(Nc3cccc(Cl)c3)c2cc1OC

1. 101
2. 100
3. 97.1
4. 96.4

* * *

Biological target: YES1 (human)
Test: radiometric filter-binding kinase assay, Kinase HotSpot
Conditions: compound 0.5 µM; ATP 10 µM
For each record, write down the corresponding residual activity.
Answers are plain numbers, in %.

| compound | residual activity, % |
| --- | --- |
| Cc1ccc(S(=O)(=O)/C=C/C#N)cc1 | 94.2 |
| Cc1ccc(NC2=CC(=O)c3sc(C)nc3C2=O)cc1 | 86.7 |
| O=C1NC(=O)/C(=C/c2ccc3c(c2)OC(F)(F)O3)S1 | 87.9 |

Dear colleague, could you send me residual activity for each of the items below? Thanks.
1. CCN(CC)C(=O)c1ccc(Nc2nc(OCC3CCCCC3)c3nc[nH]c3n2)cc1
2. O=C(Nc1cccc(Nc2nccc(Nc3cccc(C(F)(F)F)c3)n2)c1)C1CC1
3. CC(C)N(CCC(=O)c1ccc2ccccc2c1)Cc1ccccc1

1: 15.4; 2: 78.9; 3: 100
